test: in vivo; settings: Sprague Dawley, rat, in vivo, iv, 10 mg/kg
test.readout: half-life
Answers without a unit are incomplete; give the number and then its unit.

1. CCC(CC)O[C@@H]1C=C(C(=O)O)C[C@H](NC(=N)N)[C@H]1NC(C)=O [Compound 9] | 2 h

Please look at the following compound next.
Given the compound CCC(CC)O[C@@H]1C=C(C(=O)O)C[C@H](NC(C)=N)[C@H]1NC(C)=O [Compound 3] , write its reported half-life.
0.642 h

----------
This listing pairs molecules with measured Bioavailability.
experiment: in vivo; conditions: Sprague Dawley, rat, in vivo, po, 50 mg/kg
Structures can show the parent of a compound that is named as a salt.
Don't forget the unit after the value.

The following molecules have reported results that may help.
1. CCC(CC)O[C@@H]1C=C(C(=O)O)C[C@H](NC(C)=N)[C@H]1NC(C)=O | 3.0%
2. CCOC(=O)C1=C[C@@H](OC(CC)CC)[C@H](NC(C)=O)[C@@H](NC(=N)N)C1 | 1.1%
3. CCOC(=O)C1=C[C@@H](OC(CC)CC)[C@H](NC(C)=O)[C@@H](NC(C)=N)C1 [Compound 2, hydrobromide] | 0.8%

Respond only with Bioavailability recorded for CCOC(=O)C1=C[C@@H](OC(CC)CC)[C@H](NC(C)=O)[C@@H](NC(N)=NO)C1
1.7%

----------
assay: physchem; type: physicochemical; details: pH 9, aqueous buffer, thermodynamic from solid
test.readout: solubility at 30 min (µg/mL)
Numeric answer only, unit µg/mL assumed.

Determine its reported solubility at 30 min: CCOC(=O)C1=C[C@@H](OC(CC)CC)[C@H](NC(C)=O)[C@@H](N/C(C)=N/O)C1
8600
